System: U251 CNS
Assay: NCI-60 one-dose screen, 48 h (100 = growth as untreated, 0 = no growth, -100 = all killed)
Conditions: 10 µM unless noted
Protocol: Growth inhibition of the U251 human tumor cell line is measured as a screen for anti-cancer activity. Cells are grown in 96 well plates and exposed to the test compound for 48 hours. Compounds are tested at a single concentration, which is 10^-5 M for most compounds. The reported endpoint is percent growth (GI% or GIPRCNT), where numbers from 0 - 100% represent growth inhibition, and numbers from -100% - 0 represent cell death. For example, a value of 40 represents 60% growth inhibition. […]
This is part of a sample that, as a whole, favours compounds with a hit. Of some 83,000 tested, about 20% had one in any assay. Active and inactive are the calls of the source. How the source made its calls: active means growth percent below 10; inactive means the rest.

COMPOUND	growth
Cc1cc(=O)oc2cc(Oc3nc(-c4ccc(Cl)cc4)cn4c(-c5ccc(Cl)cc5)cnc34)ccc12	88.1% (inactive)
O=C1Nc2c(ccc(Cl)c2Cl)/C1=C/c1cc(Br)c(O)c(Br)c1	66.2% (inactive)
C/C(=C(/c1ccc(O)cc1)c1ccc(OCCN(C)C)cc1)c1ccccc1	70.5% (inactive)
COc1cc(C2C(C(=O)c3cccs3)=C(O)C(=O)N2CCN2CCOCC2)cc(OC)c1OC (configuration not stated)	94.7% (inactive)
NC(=S)N/N=C/c1cc(-c2cccc(N)c2)ccn1	16.1% (inactive)
O=C1C[C@H](N2C(=O)c3ccccc3S2(=O)=O)C2CO[C@@H]1O2	93.3% (inactive)
COc1ccc(C/C(C)=C(\c2ccc(Cl)cc2)c2ccc(OCCN3CCCCCC3)cc2)cc1	64.5% (inactive)

---

System: KM12 colon
Assay: NCI-60 one-dose screen, 48 h
Settings: 10 µM unless noted
Procedure: Growth inhibition of the KM12 human tumor cell line is measured as a screen for anti-cancer activity. Cells are grown in 96 well plates and exposed to the test compound for 48 hours. Compounds are tested at a single concentration, which is 10^-5 M for most compounds. The reported endpoint is percent growth (GI% or GIPRCNT), where numbers from 0 - 100% represent growth inhibition, and numbers from -100% - 0 represent cell death. For example, a value of 40 represents 60% growth inhibition. […]
Compounds without any hit were thinned out: in the full panel of roughly 83,000, 20% have a hit. Active and inactive are the calls of the source. The calls were made as follows: active = growth percent below 10; inactive = the rest.
Possible outcomes: active, inactive

COMPOUND	CAT
CCC(=O)OCc1cccc(OC)c1	inactive
O=C(O)c1ccccc1Nc1cccc(S(F)(F)(F)(F)F)c1	inactive
NC(=S)N/N=C/c1cc(-c2cccc(N)c2)ccn1	inactive
O=c1c(/C=C/c2ccco2)nnc(SCCN2CCOCC2)n1/N=C/c1ccc([N+](=O)[O-])cc1	inactive
Cc1ccn2c(-c3csc(Nc4cccc(O)c4)n3)c(C)nc2c1	inactive
COc1ccc(-n2cc(-c3ccccc3)c3c(SCC(=O)N/N=C/c4ccc([N+](=O)[O-])cc4)ncnc32)cc1	inactive
C=C1CC2(OC1=O)C(=O)N(CCCCCCCN1C(=O)C3(CC(=C)C(=O)O3)c3ccccc31)c1ccccc12 (centres undefined)	inactive
NC(CC(=O)O)C(=O)OCc1ccccc1 (centres undefined)	inactive
Nc1nc2c(c3ncccc13)C(c1ccc(Cl)c(Cl)c1)Cc1ncccc1-2 (centres undefined)	inactive
CC1CN(C(C)C)C(=S)N(c2ccccc2)C1=O (centres undefined)	inactive
Cc1ccc(NC(=O)c2sc3nc4c(cc3c2N)C(=O)CCC4)cc1C	inactive
CS(=O)CCCCCN=C=S (centres undefined)	active
Oc1ccccc1/C=N/Nc1ccc2ccccc2n1	inactive
COc1ccc(C(=O)/C=C/c2c[n+](=O)c3ccc(F)cc3n2[O-])cc1	inactive
CC1=C(C)C(=O)OC([C@](C)(O)[C@]2(O)CC[C@@]3(O)[C@@H]4C[C@H]5O[C@]56CC=CC(=O)[C@]6(C)[C@H]4CC[C@]23COC(=O)c2ccc(C)o2)C1 (some centres undefined)	active
C/C(=C(/c1ccc(O)cc1)c1ccc(Cl)cc1)c1ccccc1	active
C[C@@H]1CC[C@@H]2[C@@H]1[C@H](OC(=O)/C=C/c1ccccc1)[C@]1(C3CCCCC3)C[C@@H](OC(=O)CO)[C@@]2(C)O1	inactive
Cn1cc(-c2nc(-c3c[nH]c4ccccc34)cs2)c2cccnc21	inactive
COCCCNc1nc(NC(=O)c2ccc(F)cc2C)cc(-c2cccnc2)n1	inactive
COc1ccc2[nH]c(=O)c(/C=C/C(=O)c3ccc(Nc4nccc(-c5ccc6ccccc6c5)n4)cc3)cc2c1	inactive
O=C(CO[N+](=O)[O-])Nc1ccc(C(=O)/C=C/c2ccc(Cl)cc2)cc1	active
COc1cc(C2CC(=O)Nc3c2cnn3Cc2ccco2)cc2c1OCCO2 (centres undefined)	inactive
Nc1c(C(=O)Nc2ccccc2)sc2nc3c(cc12)CN(CCc1ccccc1)CC3	inactive
O=C(CNC1C2CC3CC(C2)CC1C3)Sc1nnc2sc3ccccc3n12 (centres undefined)	inactive
O=C1Nc2ccccc2/C1=C/C(=N/c1nnc(-c2ccccc2)s1)c1ccccc1	inactive
NC(N)=Nc1ccc(S(=O)(=O)O)cc1	inactive
COc1ccc(/C=N\NC(=O)c2ccncc2)cc1O	inactive
CCOC(=O)C(CC)n1c(=O)c2cc(OC)c(OC)cc2c2cnc3[nH]ccc3c21 (centres undefined)	inactive
CNc1nc(C)c(-c2nc(Nc3cccc(S(N)(=O)=O)c3)ncc2F)s1	active
CCCCNP1(NCCCC)=NP(NCCCC)(NCCCC)=NP(NCCCC)(NCCCC)=NP(NCCCC)(NCCCC)=N1	active
CS(=O)(=O)c1c(Nc2ccccc2)n[nH]c1N	inactive
O=C(NCc1cccc(C(F)(F)F)c1)[C@H](CCC(=O)N1CCN(C2CCCCC2)CC1)N1C(=O)[C@@H](N2C(=O)OC[C@@H]2c2ccccc2)[C@H]1/C(Cl)=C/c1ccccc1	inactive
COc1cc2c(c(OC)c1OC)-c1ccc(N=NC(N)=S)c(=O)cc1[C@@H](NC(C)=O)CC2	active
O=C1CC(c2nc3ccccc3s2)CN1C1CCCCC1 (centres undefined)	inactive
O=C(O)c1ccc2c(c1Sc1ccccc1)C(=O)c1ccccc1C2=O	inactive
CSc1ccc(N=C=C(c2ccccc2)c2ccccc2)cc1	inactive
CCOC(=O)c1c2c(n3ccc(NC(=O)CCN(CC)CC)cc13)C(=O)c1ncccc1C2=O	inactive
COc1ccc(-c2nc(Nc3cc(C)[nH]n3)c3ccccc3n2)cc1	inactive
Cc1cc(Nc2nc(N3CCNCC3)nc3ccccc23)n[nH]1	inactive

---

System: UACC-62 melanoma
Test: NCI-60 one-dose screen, 48 h (100 = growth as untreated, 0 = no growth, -100 = all killed)
Conditions: 10 µM unless noted
The panel holds about 83,000 compounds, 20% with a hit somewhere; the sample as a whole holds those more often.
Below, each entry is listed alongside its reported growth.

COMPOUND	UNIT LABEL	growth
Cn1c(=O)c2[nH]c(C(O)C(O)C(O)C(O)CO)nc2n(C)c1=O (stereo unspecified)	%	99.7
O=c1c2c3c(sc2n2c(CCl)nnc2n1Cc1ccccc1)CCCC3	%	-72.8
NS(=O)(=O)c1ccc(-n2ncc3c(=O)[nH]c(CN4CCN(c5cc6c(cc5F)c(=O)c(C(=O)O)cn6C5CC5)CC4)nc32)cc1	%	74
CN(C)CCOc1ccc(-c2nc3ccc(-c4nc5ccc(N6CCN(C)CC6)cc5[nH]4)cc3[nH]2)cc1	%	2.8
O=C(/C=C/c1cccc(Br)c1)c1ccccc1	%	92.6
Cc1nc2nc(N)nc(N)c2nc1C	%	91.1

---

Test system: HCT-15 colon
Assay: NCI-60 one-dose screen, 48 h
Conditions: 10 µM unless noted
This is part of a sample that, as a whole, favours compounds with a hit. Of some 83,000 tested, about 20% had one in any assay. Active and inactive are the calls of the source. The calls were made as follows: active = growth percent below 10; inactive = the rest.
Possible outcomes: true = active, false = inactive

COMPOUND	CAT
CCOC(=O)/C=C/c1ccc(C(=O)OCC)[nH]1	false
CCN(CC)c1ccc(CNc2cc(C)nc3ccc(OC)cc23)cc1	false
CN1CCOCCOCCOc2ccccc2NC(=O)c2nc(cnc2N)-c2ccc(cc2)S1(=O)=O	true
COc1cc2cc(COc3nccc(-c4ccc(Cl)cc4)n3)c(=O)[nH]c2cc1OC	false
CC(=O)C1=C(O)C=C2Oc3c(C(=O)/C=C/c4cc(Cl)cc(Cl)c4)c(O)c(C)c(O)c3[C@]2(C)C1=O	true
CCCCCn1cnc2c(=S)nc[nH]c21	false
O=C1/C(=C/c2ccc(Cl)cc2Cl)CN(S(=O)(=O)c2ccccc2)C/C1=C\c1ccc(Cl)cc1Cl	true
Cc1cc2c(cc1C)NC1=C(N2)OC(c2c3ccccc3cc3ccccc23)C1=O (centres undefined)	true
COc1cc(C2CC(=O)c3c(C)nn(-c4nc5ccccc5[nH]4)c3C2)cc(OC)c1OC (centres undefined)	false
CCOC(=O)c1cnc2cc(Cl)c(F)cc2c1Nc1cccc(NS(C)(=O)=O)c1	false
O=C1C(Cl)=C(Cl)C(=O)c2c1nc1n2CCCC1	false
COc1ccc(C2c3ccc4ccccc4c3Oc3ncnc(N)c32)cc1 (centres undefined)	false
CN(C)c1ccc(/C=C\C2=[N+](C)c3ccccc3C2(C)C)cc1	false
Cc1ccc(/C=C2\Oc3cc(OCC(=O)c4ccc(Cl)cc4)ccc3C2=O)cc1	false
CCOC(=O)c1ccc2c(c1)nc(/C=C/c1ccc(Cl)cc1)n2-c1cc(C(C)(C)C)[nH]n1	false
O=C(/C=C/c1cc2ccccc2[nH]c1=O)/C=C/c1cc2ccccc2[nH]c1=O	false
CCOC(=O)c1nc(Nc2cc(C)[nH]n2)c2ccccc2n1	false
COc1cnc2c(c1)C(=O)c1c-2n(CCCN2CCCC2)c(=O)c2cc([N+](=O)[O-])ccc12	false
COc1ccc2nc3cc(Cl)ccc3c(N3CCN(c4nccc(NCc5ccccc5)n4)CC3)c2c1	false
O=C1c2cccnc2C(=O)c2c1c(C(=O)OCCN1CCCCC1)c1ccccn21	true
COc1ccc(C2Nc3ccccc3-n3cccc32)cc1 (centres undefined)	false
CN1CCN(c2ccc3nc(-c4ccc5nc(-c6ccc(OCCC(C)(C)C)cc6)[nH]c5c4)[nH]c3c2)CC1	false
CCCCN(CCCC)Cc1c(C)[nH]c2cc(OC)ccc2c1=O	false
CCC(C)[C@@H]1NC(=O)[C@@H]2CCCN2C(=O)[C@H](Cc2ccccc2)NC(=O)[C@@H]2CCCN2C(=O)[C@H](Cc2ccccc2)NC(=O)[C@@H]2CCCN2C(=O)[C@H](Cc2ccccc2)NC1=O (some centres undefined)	false
Cc1ccc(SCN2CCN(c3cccc(Cl)c3)CC2)cc1	false
CCN(CC)CC(C)Nc1ccc([N+](=O)[O-])c2sc3ccccc3c(=O)c12 (centres undefined)	false
Cc1ccc(-c2nc(/C=N/Nc3cc(C)nc4ccc(Cl)cc34)c(C)o2)cc1	true
COc1cc(-c2c3sc(=O)[nH]c3nc3c2c(=O)[nH]n3C(C)C)cc2c1OCO2	false
CCCCCCCCOC(=O)CC[C@@H](C)[C@H]1CC[C@H]2[C@@H]3[C@H](OC(=O)CCN)C[C@@H]4C[C@H](OC(=O)CCN)CC[C@]4(C)[C@H]3C[C@H](OC(=O)CCN)[C@]12C	false

Data origin, for the record: PubChem BioAssay (NCI)
